Molecular target: T1, AXLECDHis (extracellular domain of human AXL) (Homo sapiens, UniProt P30530)
T1 construct: the extracellular domain (ECD) of human AXL (aa 1-447) with a C-terminal His tag (AXLECDHis); His tag (C); made in house; host or cells: HEK-293F
T1 sequence (P30530 26-447): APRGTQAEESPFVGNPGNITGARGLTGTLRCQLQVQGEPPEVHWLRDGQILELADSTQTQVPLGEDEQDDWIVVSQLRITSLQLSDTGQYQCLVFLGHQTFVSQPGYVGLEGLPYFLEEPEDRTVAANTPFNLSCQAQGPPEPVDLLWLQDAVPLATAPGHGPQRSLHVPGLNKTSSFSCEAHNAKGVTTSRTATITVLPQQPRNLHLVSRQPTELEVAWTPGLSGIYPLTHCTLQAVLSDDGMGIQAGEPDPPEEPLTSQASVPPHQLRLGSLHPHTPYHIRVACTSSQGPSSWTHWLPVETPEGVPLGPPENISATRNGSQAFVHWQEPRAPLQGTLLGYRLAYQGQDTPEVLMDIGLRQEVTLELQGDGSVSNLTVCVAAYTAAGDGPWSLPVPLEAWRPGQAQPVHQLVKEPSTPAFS
Assay: Binding affinity by Bio-Layer Interferometry (Octet)
Conditions: soluble AXLECDHis, 30° C, 1:1 model
ASSAY_ENDPOINT: Kon (M⁻¹ s⁻¹)
The answer is to be given in M⁻¹ s⁻¹; state only the numeric part.

Measured Kon of IgG1-AXL-511: human IgG1,κ anti-AXL antibody, VH SEQ ID NO:136, VL SEQ ID NO:140; Ig2 domain binding (antibody, V domains shown, homo sapiens) VH: EVQLLESGGGLVQPGGSLRLSCAASGFTFSSYAMNWVRQAPGKGLEWVSGISGSGGHTYHADSVKGRFTISRDNSKNTLYLQMNSLRAEDTAVYYCAKDRYDILTGYYNLLDYWGQGTLVTVSS VL: DIQMTQSPSSLSASVGDRVTITCRASQGISSWLAWYQQKPEEAPKSLIYAASSLQSGVPSRFSGSGSGTDFTLTISSLQPEDFATYYCQQYNSYPLTFGGGAKVEIK : 170000
